B1: library; a variant is named by its letters at N, in order (parent)
chain: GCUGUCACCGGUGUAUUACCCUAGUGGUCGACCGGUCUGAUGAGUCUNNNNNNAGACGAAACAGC

Variants of: B1
Test: FACS-Seq fitted mean relative fluorescence mCherry/BFP without ligand (log10 relative fluorescence); ligand: hypoxanthine (xanthine aptamer); higher = higher reporter protein expression
Conditions: HEK293T, ligand present: no
Note to self: class = bucket of FACS-Seq fitted mean (log10), per bin 0 (below 0.2), bin 1 (0.2 to below 0.4), bin 2 (0.4 or more)

GUUUUU	bin 0
UCAACG	bin 2
CUGUCA	bin 2
AUUGAG	bin 1
UAGGCC	bin 1
CGGACA	bin 2
GGGUAU	bin 0
AUUAGG	bin 0
CAUAAU	bin 2
GUUUGG	bin 1
UGAGAU	bin 2
CAUAAA	bin 2
UAUUAU	bin 2
GGAGAG	bin 1
UCGGAG	bin 0
CGAUUC	bin 1
AAUUGG	bin 1
AGAGGA	bin 2
UGAAGU	bin 1
CUGAAG	bin 2
GGUGCC	bin 2
UAUCAA	bin 2
AACCUG	bin 0
UUCGGU	bin 1
AUCUGG	bin 1
GAGUAC	bin 1
CAAUUA	bin 2
UCUGGA	bin 0
GGAAUG	bin 0
AUUUAA	bin 2
GAGUUU	bin 1
UAGGGG	bin 0
CGAGGU	bin 2
AUAUGA	bin 2
AGGGUU	bin 1
GUAGAA	bin 1
UAGCAG	bin 1
GUUGUU	bin 2
UAUACU	bin 1
UGGUUU	bin 1
GGAUAA	bin 2
ACAAAG	bin 1
GGUAGG	bin 0
GUCUCU	bin 1
AUGUGG	bin 0
GCGGAU	bin 1
AACACG	bin 0
GCGAAC	bin 0
GCCGAA	bin 1
GAAGUG	bin 0
UCCUGG	bin 2
CCAAAU	bin 0
CAGGAA	bin 1
UAGAUG	bin 0
CAAUGU	bin 2
GCGAGU	bin 1
AAUCGG	bin 0
AUCAGU	bin 0
AUGGUA	bin 1
GCUUUA	bin 2
UAUGGG	bin 2
UUUUCC	bin 0
GGCAAG	bin 2
CACCUU	bin 0
GCGAUC	bin 1
AGAGGU	bin 2
ACAGUU	bin 0
ACGGAA	bin 0
GCGGAG	bin 0
CUGACA	bin 2
CUUGGA	bin 2
GGCCGU	bin 2
GGGAAA	bin 1
AUGUGA	bin 1
AGGAGA	bin 0
GUGGGG	bin 0
UCAGUA	bin 0
AGCCUG	bin 2
UCUAAG	bin 2
AGGAAG	bin 0
AGGGAA	bin 2
